Kindly supply the reported Kd values for the records listed here.
Target: T1, SA2–SCC1 complex (SA2 amino acid residues 80–1060 with SCC1 amino acid residues 281–420) (UniProt Q8N3U4 80-1060; O60216 281-420)
T1 construct: SA2 (STAG2), cohesin subunit, residues 80-1060; SCC1 (RAD21, Mcd1), cohesin subunit, residues 281-420; also called cohesin subcomplex SA2–SCC1; CES
T1 sequence (looked up) 1: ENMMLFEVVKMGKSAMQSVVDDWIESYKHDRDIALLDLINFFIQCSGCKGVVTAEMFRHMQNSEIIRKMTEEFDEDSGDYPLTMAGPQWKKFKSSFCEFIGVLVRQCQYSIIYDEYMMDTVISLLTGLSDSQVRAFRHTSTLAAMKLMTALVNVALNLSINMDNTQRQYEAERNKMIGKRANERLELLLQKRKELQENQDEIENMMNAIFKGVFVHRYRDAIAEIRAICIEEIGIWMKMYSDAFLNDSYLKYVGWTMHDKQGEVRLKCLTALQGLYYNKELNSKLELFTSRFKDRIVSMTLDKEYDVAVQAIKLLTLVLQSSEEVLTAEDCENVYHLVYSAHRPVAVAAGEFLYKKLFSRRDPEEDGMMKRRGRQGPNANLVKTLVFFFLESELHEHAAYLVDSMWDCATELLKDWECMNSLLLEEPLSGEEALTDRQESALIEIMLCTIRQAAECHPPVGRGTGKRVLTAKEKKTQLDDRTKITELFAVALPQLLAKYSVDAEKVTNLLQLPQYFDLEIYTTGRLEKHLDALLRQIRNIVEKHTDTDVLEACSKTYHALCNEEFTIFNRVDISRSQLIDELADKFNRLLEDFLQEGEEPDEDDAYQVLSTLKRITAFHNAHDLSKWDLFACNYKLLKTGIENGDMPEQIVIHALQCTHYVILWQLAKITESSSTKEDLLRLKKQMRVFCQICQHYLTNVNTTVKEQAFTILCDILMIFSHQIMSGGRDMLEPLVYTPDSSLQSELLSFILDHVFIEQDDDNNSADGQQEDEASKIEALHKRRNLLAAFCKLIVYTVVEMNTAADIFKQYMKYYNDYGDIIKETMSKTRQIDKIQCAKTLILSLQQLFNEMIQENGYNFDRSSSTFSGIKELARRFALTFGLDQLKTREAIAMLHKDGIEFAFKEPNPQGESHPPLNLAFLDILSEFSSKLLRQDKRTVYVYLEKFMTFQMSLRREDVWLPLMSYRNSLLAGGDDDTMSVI
T1 sequence (looked up) 2: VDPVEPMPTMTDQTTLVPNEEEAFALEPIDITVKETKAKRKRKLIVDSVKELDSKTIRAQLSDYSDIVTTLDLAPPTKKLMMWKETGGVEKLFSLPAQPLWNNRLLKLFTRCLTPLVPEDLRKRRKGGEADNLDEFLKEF
Experiment: ITC; performed as described previously (ref. 21); data analysed with Origin 7.0; SGO1 peptides with SA2–SCC1
Conditions: both partners purified
Non-standard residues stand in square brackets, D forms with d. No end group written: not given here. pT = C[C@@H](OP(=O)(O)O)[C@H](N)C(=O)O
Numbers only, in µM.

1. SNDAYNFNLEE (Shugoshin 1 (SGO1), human, residues 331-341 with the YxF motif; also called SGO1 331–341; nonphosphorylated SGO1 peptide) [SGO1 peptide spanning amino acids 331–341 (SNDAYNFNLEE)] ... 13.5

Qu. Can you share its Kd? I mean this binder: SNDAYNFNLEEGVHL[pT]PFR (Shugoshin 1 (SGO1), human, residues 331-349, T346 phosphorylated; also called T346-phosphorylated SGO1 fragment; SGO1 331–349 pT346) [SGO1 peptide spanning amino acids 331–349 containing phosphorylated pT346 (SNDAYNFNLEEGVHLpTPFR)]
Ans. 2.3
